Molecular target: human ALX receptor (Homo sapiens)
Sequence (P25090 whole entry): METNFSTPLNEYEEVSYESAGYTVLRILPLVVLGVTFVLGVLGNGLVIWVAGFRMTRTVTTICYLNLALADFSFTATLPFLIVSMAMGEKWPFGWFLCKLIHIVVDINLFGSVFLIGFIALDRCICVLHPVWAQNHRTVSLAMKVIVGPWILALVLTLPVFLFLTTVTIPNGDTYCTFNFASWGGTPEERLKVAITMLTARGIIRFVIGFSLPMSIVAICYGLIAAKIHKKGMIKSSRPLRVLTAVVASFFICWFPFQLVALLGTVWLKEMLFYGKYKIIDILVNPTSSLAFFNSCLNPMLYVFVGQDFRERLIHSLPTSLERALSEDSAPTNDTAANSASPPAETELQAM
Test: Intracellular calcium measurements (FLIPR), agonistic activity in HEK293-hALXR-Gα16 cells
Settings: Fluo-4 calcium FLIPR, normalized to WKYMVm 10 nM
Description: The ALX receptor and FPRL2 agonistic activities of the compounds of formula (I) are determined in accordance with the following experimental method. Intracellular Calcium Measurements: Cells expressing recombinant human ALX receptor and the G-protein Gα16 (HEK293-hALXR-Gα16) were grown to 80% confluency in Growing Medium (GM). […] Changes in fluorescence were monitored before and after the addition of test compounds at lex=488 nm and lem=540 nm. […]

Molecule	Units	EC50
O=C(NCCCCN1CCCC1)[C@H]1[C@H](C(=O)NCc2c(F)cc(Br)cc2F)[C@@H]2C=C[C@H]1C21CC1	nM	28
O=C(NCCF)[C@H]1[C@H](C(=O)NCc2ccc(Br)cc2)[C@@H]2C=C[C@H]1C21CC1 (racemic)	nM	673
O=C(NCCCCN1CCCC1)[C@H]1[C@H](C(=O)NCc2cccc(Br)c2)[C@@H]2C=C[C@H]1C21CC1 (racemic)	nM	2060
CC(=O)c1ccc(CNC(=O)[C@H]2[C@H](C(=O)NCCCCN3CCCC3)[C@H]3C=C[C@@H]2C32CC2)o1	nM	28
Cc1cc(C(=O)N(C)C[C@H]2[C@H](C(=O)Nc3ccc(Br)cc3)[C@@H]3C=C[C@H]2C32CC2)nn1C (racemic)	nM	303
COc1ccc(CCNC(=O)[C@H]2[C@H](C(=O)NCCCCN3CCCC3)[C@H]3C=C[C@@H]2C32CC2)cc1 (racemic)	nM	8610

* * *

molecular target: human FPRL2 (Homo sapiens, UniProt P25089); assay: Intracellular calcium measurements (FLIPR), agonistic activity in HEK293-hFPRL2-Gα16 cells; conditions: Fluo-4 calcium FLIPR, normalized to GLY14-Humanin 100 nM
Sequence (P25089 whole entry): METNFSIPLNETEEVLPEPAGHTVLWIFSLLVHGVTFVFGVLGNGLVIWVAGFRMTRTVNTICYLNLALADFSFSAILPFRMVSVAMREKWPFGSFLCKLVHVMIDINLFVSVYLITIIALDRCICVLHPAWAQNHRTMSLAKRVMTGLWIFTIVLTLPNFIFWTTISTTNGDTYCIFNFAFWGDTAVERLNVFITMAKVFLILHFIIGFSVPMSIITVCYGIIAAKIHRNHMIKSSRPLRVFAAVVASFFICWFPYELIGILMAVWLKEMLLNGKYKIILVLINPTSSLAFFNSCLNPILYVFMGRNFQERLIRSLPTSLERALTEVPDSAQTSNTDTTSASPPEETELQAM

Compound	EC50 [nM]
O=C(NCCCn1ccnc1)[C@H]1[C@H](C(=O)Nc2ccc(Br)cc2)[C@@H]2CC[C@H]1C21CC1 (racemic)	1480
O=C(NC1CC1)[C@H]1[C@H](C(=O)Nc2ccc(Br)cc2)[C@@H]2C=C[C@H]1C21CC1 (racemic)	4610
O=C(NCC1CCNCC1)[C@H]1[C@H](C(=O)NCc2ccc(Br)cc2)[C@@H]2C=C[C@H]1C21CC1 (racemic)	1170

* * *

molecular target: human FPRL2 (Homo sapiens); assay: Intracellular calcium measurements (FLIPR), agonistic activity in HEK293-hFPRL2-Gα16 cells; conditions: Fluo-4 calcium FLIPR, normalized to GLY14-Humanin 100 nM
pEC50: −log10 of the molar value.

Compound	pEC50
CC(CCCNC(=O)[C@H]1[C@H](C(=O)Nc2ccc(Br)cc2)[C@@H]2C=C[C@H]1C21CC1)N1CCCC1 (stereo partly drawn)	5.12
COc1ccc(CNC(=O)[C@H]2[C@H](C(=O)NCCCCN3CCCC3)[C@H]3C=C[C@@H]2C32CC2)c(OC)c1 (racemic)	6.48
O=C(NCCCN1CCCC1)[C@H]1[C@H](C(=O)Nc2ncc(Br)s2)[C@@H]2C=C[C@H]1C21CC1 (racemic)	6.27
Cc1ccc(CCNC(=O)[C@H]2[C@H](C(=O)NCCCCN3CCCC3)[C@H]3C=C[C@@H]2C32CC2)cc1C (racemic)	6.99
O=C(NCCCCN1CCCC1)[C@H]1[C@H](C(=O)NCCc2ccccc2)[C@@H]2C=C[C@H]1C21CC1 (racemic)	6.82
CC(=O)c1csc(CNC(=O)[C@H]2[C@H](C(=O)NCC3CCNCC3)[C@H]3C=C[C@@H]2C32CC2)n1 (racemic)	5.74
